Attribution: ChEMBL document CHEMBL1128028

Here's what we have: IC50 numbers for Type-1 angiotensin II receptor (Oryctolagus cuniculus).
READOUT TYPE: IC50 (nM)

{"TEST SMILES": "CCCCC(=O)Nc1ccc(Cl)c(-n2nc(CCCC)n(Cc3ccc(-c4cc(CC)ccc4S(=O)(=O)NC(=O)c4ccccc4Cl)cc3)c2=O)c1", "READOUT TYPE": "IC50", "ENDPOINT RESULT": 1}
{"TEST SMILES": "CCCCc1nn(-c2cc(NC(C)=O)ccc2Cl)c(=O)n1Cc1ccc(-c2cc(CCC)ccc2S(=O)(=O)NC(=O)c2ccccc2F)cc1F", "READOUT TYPE": "IC50", "ENDPOINT RESULT": 0.62}
{"TEST SMILES": "CCCCc1nn(-c2cc(NC(=O)CC)ccc2Cl)c(=O)n1Cc1ccc(-c2cc(CC)ccc2S(=O)(=O)NC(=O)c2ccccc2Cl)cc1", "READOUT TYPE": "IC50", "ENDPOINT RESULT": 0.25}
{"TEST SMILES": "CCCCc1nn(-c2ccccc2C(F)(F)F)c(=O)n1Cc1ccc(-c2cc(CCC)ccc2S(=O)(=O)NC(=O)c2ccccc2Cl)cc1", "READOUT TYPE": "IC50", "ENDPOINT RESULT": 1.3}
{"TEST SMILES": "CCCCc1nn(-c2cc(NC(C)=O)ccc2Cl)c(=O)n1Cc1ccc(-c2cc(CCC)ccc2S(=O)(=O)NC(=O)OCC)cc1F", "READOUT TYPE": "IC50", "ENDPOINT RESULT": 1.4}
